ASSAYED SYSTEM: NADPH oxidase 5 (Homo sapiens)
ASSAY EXPLANATION: NOX5-dependent H2O2 signal modulators, primary screen, NOX inhibitor project, cell-based, HEK293-NOX5, Amplex Red fluorescence (AID 1161)
CONDITION SET: HEK293-NOX5, ionomycin, 45 min, higher = more signal
Each entry below carries its recorded z-score.
Output spec: single numeric token, no unit.

Reference set (5 entries):
# MOLECULE, PROPERTY MEASURED, VALUE OBSERVED
rows = [
    ("COC(=O)[C@@]1(Cc2ccc(OC)cc2)[C@H]2c3cc(C(=O)N4CCCC4)n(Cc4ccccc4)c3C[C@H]2CN1C(=O)c1ccccc1", "z-score", -3.04),
    ("CC(C)[C@@H](CO)NC(=O)[C@H]1[C@@H](c2ccccc2)N(c2ccccc2)O[C@@H]1C", "z-score", 0.153),
    ("CCCN1C(=O)[C@]2(CCS(=O)(=O)c3ccccc3)N=C(c3ccc(OCCCO)cc3)O[C@@H]2c2ccccc21", "z-score", -1.17),
    ("CCCCC(O)C1C=CC2C(=O)N(c3ccccc3)C(=O)C2N1Nc1ccccc1F (stereo not drawn)", "z-score", -1.88),
    ("CCOC(=O)C1=CCC(c2ccccc2)N(S(=O)(=O)CC[Si](C)(C)C)C1 (stereo not drawn)", "z-score", -0.179),
]

Assign z-score to the following record: CCCCCCC#C[Si](O[C@H](c1ccccc1)c1cn([C@H](CO)Cc2ccccc2)nn1)(C(C)C)C(C)C
-2.2

Assign z-score to the following record: COc1ccc(CCNC(=O)[C@@H]2c3ccccc3C(=O)N(C3Cc4ccccc4C3)[C@H]2c2ccc(CO)cc2)cc1
-3.47

Assign z-score to the following record: CCCCC(=C=CC[C@@H](O)c1ccccc1OCCO)CCO
-1.71

---

ASSAY EXPLANATION: FRG1 promoter luciferase signal modulators, primary screen, FRG1 inhibition for FSHD, cell-based, C2C12 myotubes, firefly/Renilla luciferase, luminescence (AID 1084)
CONDITION SET: higher = more signal, called active from +8 up or from −8 down
PROPERTY MEASURED: z-score
Output spec: single numeric token, no unit.

Reference set (4 entries):
# COMPOUND, z-score
measured = [
    ("COC(=O)[C@@]1(Cc2ccc(OC)cc2)[C@H]2c3cc(C(=O)N(C)C)n(Cc4cccc5ccccc45)c3C[C@H]2CN1C(=O)c1ccccc1", 0.189),
    ("CCCCN1CC=CC23O[C@@H]4C=CCOC(=O)[C@@H]4[C@H]2C(=O)N(CCCCCO)[C@@H]3C1=O (stereo partly specified)", -0.333),
    ("COc1cc(OC)c(C(O)C2C=CC3C(=O)NC(=O)C3N2Nc2ccc(Cl)cc2Cl)cc1Br (stereo unspecified)", 0.809),
    ("C=CCNC(=O)[C@@H]1[C@H]2C(=O)O[C@H](c3ccccc3)[C@H](c3ccccc3)N2[C@H](c2ccccc2OCCO)[C@@]12C(=O)N(C(=O)OCCOC)c1ccc(C#CCNC(N)=O)cc12", -0.623),
]

Assign z-score to the following record: COCC(=C=CC[C@@H](O)c1ccccc1OCCO)C[C@@H](O)c1cc(Cl)cc(Cl)c1O
-0.914

Assign z-score to the following record: O=C1OCCC/C=C\[C@H]2OC34C=CCN(Cc5ccccc5)C(=O)[C@H]3N(CCCCCCO)C(=O)[C@@H]4C12 (stereo partly specified)
0.247

Assign z-score to the following record: COc1ccc(C(O)C2C=CC3C(=O)N(c4ccccc4)C(=O)C3N2Nc2ccc(C(C)C)cc2)cc1OCc1ccccc1 (stereo unspecified)
-1.44

Assign z-score to the following record: C=CCOC(=O)[C@H]1[C@@H]2C(=O)O[C@@H](c3ccccc3)[C@@H](c3ccccc3)N2[C@@H](c2ccc(OCCOC(=O)[C@H]3C[C@H]4C(=O)N[C@@H](CC(C)C)C(=O)N4[C@H]3c3ccc(O)cc3)cc2)[C@]12C(=O)Nc1ccc(I)cc12
1.11

Assign z-score to the following record: C=CCOC(=O)[C@@H]1[C@H]2C(=O)O[C@H](c3ccccc3)[C@H](c3ccccc3)N2[C@H](c2ccc(OCCOC(=O)[C@@H]3C[C@@H]4C(=O)N[C@@H](CCCC[N+](C)(C)C)C(=O)N4[C@@H]3c3cccc(OCCO)c3)cc2)[C@@]12C(=O)Nc1ccc(I)cc12
3.07

Assign z-score to the following record: CN1C(=O)C2C=CC(C(O)Cc3ccccc3)N(Nc3ccccc3)C2C1=O (stereo unspecified)
0.84
